Assay: Volume of distribution at steady state in mouse at 10 mg/kg, iv and 20 mg/kg, po
Details: in vivo

[
  {
    "SMILES STR": "O=C(O)c1cccnc1",
    "Vd / L/kg": 1
  }
]

###

Assay: Clearance in mouse at 1 mg/kg, iv and 2 mg/kg, po
Assay type: ADME, organism-based
Conditions: in vivo

[
  {
    "COMPOUND": "O=C(CCc1ccc(-c2ccccc2)cc1)NC1=C(C(=O)O)CCC1",
    "clearance": "1.2 mL/min/kg"
  },
  {
    "COMPOUND": "O=C(CCc1csc(-c2ccc(O)cc2Cl)n1)Nc1ccccc1C(=O)O",
    "clearance": "7.3 mL/min/kg"
  },
  {
    "COMPOUND": "Cc1c(C[C@@H](C)C(=O)NC2=C(C(=O)O)CCCC2)cnn1-c1ccc(O)cc1",
    "clearance": "3.52 mL/min/kg"
  },
  {
    "COMPOUND": "O=C(CCc1ccc(-c2ccccc2)cc1)Nc1ccccc1C(=O)O",
    "clearance": "4.8 mL/min/kg"
  },
  {
    "COMPOUND": "CC(CC(=O)NC1=C(C(=O)O)CCCC1)c1csc(-c2ccc(O)cc2Cl)n1 (stereo not given)",
    "clearance": "0.3 mL/min/kg"
  }
]
